STUDY TARGET: 5-hydroxytryptamine receptor 2B (Homo sapiens); note: assay procedure not described here
Sequence (P41595 whole entry): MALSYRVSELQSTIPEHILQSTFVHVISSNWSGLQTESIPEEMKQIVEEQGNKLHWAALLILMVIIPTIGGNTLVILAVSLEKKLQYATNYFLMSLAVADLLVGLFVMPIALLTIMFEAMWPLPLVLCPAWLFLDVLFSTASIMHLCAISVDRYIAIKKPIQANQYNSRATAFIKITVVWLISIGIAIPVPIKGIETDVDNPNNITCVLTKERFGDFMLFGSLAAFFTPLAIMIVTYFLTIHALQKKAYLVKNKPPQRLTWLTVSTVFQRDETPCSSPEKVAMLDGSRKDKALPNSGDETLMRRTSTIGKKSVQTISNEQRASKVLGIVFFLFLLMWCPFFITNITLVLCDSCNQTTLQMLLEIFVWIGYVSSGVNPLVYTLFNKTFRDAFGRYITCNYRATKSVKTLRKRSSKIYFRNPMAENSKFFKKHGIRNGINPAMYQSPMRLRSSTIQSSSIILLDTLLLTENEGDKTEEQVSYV
Assay type: functional, cell-based
PROPERTY LABEL: AC50

compound=CC(C)(C)NC[C@H](O)COc1nsnc1N1CCOCC1 property_label=AC50 recorded_result="> 30 µM"
compound=Clc1cccc(Cl)c1N=C1NCCN1 property_label=AC50 recorded_result="> 10 µM"
compound="CCOc1cc(CC(=O)N[C@@H](CC(C)C)c2ccccc2N2CCCCC2)ccc1C(=O)O [REPAGLINIDE]" property_label=AC50 recorded_result="> 30 µM"
compound=Cc1ccc(NC(=O)C2(c3ccc4c(c3)OC(F)(F)O4)CC2)nc1-c1cccc(C(=O)O)c1 property_label=AC50 recorded_result="> 30 µM"
compound="COc1cccc(N(C)C(=S)Oc2ccc3c(c2)CCCC3)n1 [LIRANAFTATE]" property_label=AC50 recorded_result="> 30 µM"
compound="Cc1cc(CC(=O)O)n(C)c1C(=O)c1ccc(Cl)cc1 [ZOMEPIRAC]" property_label=AC50 recorded_result="> 30 µM"
compound=C=C[C@@]1(C)CC(=O)[C@]2(O)[C@@]3(C)[C@@H](O)CCC(C)(C)[C@@H]3[C@H](OC(=O)CCN(C)C)[C@H](OC(C)=O)[C@@]2(C)O1 property_label=AC50 recorded_result="> 30 µM"
compound="N=C(N)NCCCCCCC(=O)NC(O)C(=O)NCCCCNCCCN (stereo not given)" property_label=AC50 recorded_result="> 30 µM"
compound=CNC[C@H](O)c1cccc(O)c1 property_label=AC50 recorded_result="> 30 µM"
compound=CO[C@@]1(NC(=O)Cc2cccs2)C(=O)N2C(C(=O)O)=C(COC(N)=O)CS[C@@H]21 property_label=AC50 recorded_result="> 30 µM"
compound="CCC(=O)OCC(=O)[C@@]1(OC(=O)CC)[C@@H](C)C[C@H]2[C@@H]3CCC4=CC(=O)C=C[C@]4(C)[C@@]3(F)[C@@H](O)C[C@@]21C [BETAMETHASONE DIPROPIONATE]" property_label=AC50 recorded_result="> 30 µM"
compound=Cc1ccc(=O)n(-c2ccccc2)c1 property_label=AC50 recorded_result="> 30 µM"
compound="Nc1nc(F)nc2c1ncn2[C@@H]1O[C@H](COP(=O)(O)O)[C@@H](O)[C@@H]1O [FLUDARABINE PHOSPHATE]" property_label=AC50 recorded_result="> 30 µM"
compound=O=C1CN=C(c2ccccc2)c2cc(Cl)ccc2N1 property_label=AC50 recorded_result="> 10 µM"
compound=O=C(O)c1ccccc1OP(=O)(O)O property_label=AC50 recorded_result="> 30 µM"
compound=Oc1c(I)cc(Cl)c2cccnc12 property_label=AC50 recorded_result="> 30 µM"
compound=CC(=O)OCC[N+](C)(C)C property_label=AC50 recorded_result="> 10 µM"
compound=CC(=O)O[C@H]1C[C@@H]2CC[C@@H]3[C@H](CC[C@@]4(C)[C@H]3C[C@H]([N+]3(C)CCCCC3)[C@@H]4OC(C)=O)[C@@]2(C)C[C@@H]1[N+]1(C)CCCCC1 property_label=AC50 recorded_result="> 10 µM"
compound=COC1=C(OC)C(=O)C(CCCCCCCCCCO)=C(C)C1=O property_label=AC50 recorded_result="> 10 µM"
compound=C=C(C)[C@@H]1CCC(C)=C[C@H]1c1c(O)cc(CCCCC)cc1O property_label=AC50 recorded_result="2.28 µM"
compound=COc1ccc2c(c1)[C@]13CCCC[C@@H]1[C@H](C2)N(C)CC3 property_label=AC50 recorded_result="> 10 µM"
compound=CCn1cc(C(=O)O)c(=O)c2cc(F)c(N3CCNCC3)nc21 property_label=AC50 recorded_result="> 10 µM"
compound=C[C@H]1Oc2cc(cnc2N)-c2c(nn(C)c2C#N)CN(C)C(=O)c2ccc(F)cc21 property_label=AC50 recorded_result="14 µM"
compound=CCCOC(C(=O)OC1CCN(C)CC1)(c1ccccc1)c1ccccc1 property_label=AC50 recorded_result="16 µM"
compound=Cn1c(=O)c2[nH]cnc2n(C)c1=O property_label=AC50 recorded_result="> 10 µM"
compound=CCN(CC)CC(=O)Oc1ccc(NC(C)=O)cc1 property_label=AC50 recorded_result="> 30 µM"
compound=[H]/N=C(/N)N[C@H]1[C@H](O)[C@@H](O)[C@H](O[C@@H]2O[C@@H](C)[C@](O)(C=O)[C@H]2O[C@@H]2O[C@@H](CO)[C@H](O)[C@@H](O)[C@@H]2NC)[C@@H](N/C(N)=N\[H])[C@@H]1O property_label=AC50 recorded_result="> 30 µM"
compound=CC(=O)c1ccc2c(c1)N(CCCN1CCC(CCO)CC1)c1ccccc1S2 property_label=AC50 recorded_result="4.7 µM"
compound=CCCCCCNC(=O)n1cc(F)c(=O)[nH]c1=O property_label=AC50 recorded_result="> 30 µM"
compound=Cc1cnc(NC(=O)C2=C(O)c3ccccc3S(=O)(=O)N2C)s1 property_label=AC50 recorded_result="> 10 µM"
compound=O=C1NC(=O)C(c2ccccc2)(c2ccccc2)N1 property_label=AC50 recorded_result="> 30 µM"
compound="CC(=O)/N=c1/sc(S(N)(=O)=O)nn1C [METHAZOLAMIDE]" property_label=AC50 recorded_result="> 10 µM"
compound="CC1(C)O[C@@H]2[C@@H](CO[C@@]3(COS(N)(=O)=O)OC(C)(C)O[C@@H]23)O1 [TOPIRAMATE]" property_label=AC50 recorded_result="> 10 µM"
compound=CNCC[C@H](Oc1cccc2ccccc12)c1cccs1 property_label=AC50 recorded_result="12 µM"
compound=O=C(O)c1cc(O)c2c3nc4ccccc4oc-3cc(=O)c2n1 property_label=AC50 recorded_result="> 30 µM"
